test system: LG0567-F671-PDC complex spheroids viability; assay: Anticancer human tumor LG0567-F671-PDC patient-derived lung adenocarcinoma cell line growth inhibition [RAS]; details: second compound 0.03 µM; first compound 0.316 µM; active = viability on the fitted dose curve at most 10% of control; inactive = the rest
Select the matching outcome among active, inactive

Use the examples below as a reference point.
CC(C)NCC(C(=O)N1CCN(c2ncnc3c2C(C)CC3O)CC1)c1ccc(Cl)cc1 (centres undefined) + CCn1c(-c2cccnc2C(C)OC)c2c3cc(ccc31)N1CCOC(CC(NC(=O)C(C(C)C)N(C)C(=O)C3(F)CCN(C(=O)C#CC(C)(C)N(C)C)CC3)C(=O)N3CCCC(N3)C(=O)OCC(C)(C)C2)C1: active
O=C(c1ccc(F)c(F)c1Nc1ccc(I)cc1F)N1CC(O)([C@@H]2CCCCN2)C1 + CCn1c(-c2cccnc2C(C)OC)c2c3cc(ccc31)N1CCOC(CC(NC(=O)C(C(C)C)N(C)C(=O)C3(F)CCN(C(=O)C#CC(C)(C)N(C)C)CC3)C(=O)N3CCCC(N3)C(=O)OCC(C)(C)C2)C1: active
C[C@@H](NC(=O)c1ncnc(N)c1Cl)c1ncc(C(=O)Nc2cc(C(F)(F)F)c(Cl)cn2)s1 + CCn1c(-c2cc(N3CCN(C)CC3)cnc2C(C)OC)c2c3cc(ccc31)-c1csc(n1)CC(NC(=O)C1CC1C)C(=O)N1CCCC(N1)C(=O)OCC(C)(C)C2: active

### Prompt Test call, this compound: CCN1CCN(Cc2ccc(Nc3ncc(F)c(-c4cc(F)c5nc(C)n(C(C)C)c5c4)n3)nc2)CC1 + CCn1c(-c2cccnc2C(C)OC)c2c3cc(ccc31)N1CCOC(CC(NC(=O)C(C(C)C)N(C)C(=O)C3(F)CCN(C(=O)C#CC(C)(C)N(C)C)CC3)C(=O)N3CCCC(N3)C(=O)OCC(C)(C)C2)C1
### Response inactive

====

system: LG0567-F671-PDC complex spheroids viability; assay: Anticancer human tumor LG0567-F671-PDC cell line growth inhibition [RAS]; conditions: second compound 0.3 µM; first compound 0.01 µM; stronger effect = lower value;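 note: spheroids exposed to compound for seven days before readout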
Readout Kind: viability, T/C (%)
Give bare numbers, in %.

Example cases with answers are listed next.
O=C(c1ccc(F)c(F)c1Nc1ccc(I)cc1F)N1CC(O)([C@@H]2CCCCN2)C1 + CCn1c(-c2cccnc2C(C)OC)c2c3cc(ccc31)N1CCOC(CC(NC(=O)C(C(C)C)N(C)C(=O)C3(F)CCN(C(=O)C#CC(C)(C)N(C)C)CC3)C(=O)N3CCCC(N3)C(=O)OCC(C)(C)C2)C1: 7.35
CC(C)n1nc(-c2ccc3oc(N)nc3c2)c2c(N)ncnc21 + CCn1c(-c2cccnc2C(C)OC)c2c3cc(ccc31)N1CCOC(CC(NC(=O)C(C(C)C)N(C)C(=O)C3(F)CCN(C(=O)C#CC(C)(C)N(C)C)CC3)C(=O)N3CCCC(N3)C(=O)OCC(C)(C)C2)C1: 7.61
CCN1CCN(Cc2ccc(Nc3ncc(F)c(-c4cc(F)c5nc(C)n(C(C)C)c5c4)n3)nc2)CC1 + CCn1c(-c2cccnc2C(C)OC)c2c3cc(ccc31)N1CCOC(CC(NC(=O)C(C(C)C)N(C)C(=O)C3(F)CCN(C(=O)C#CC(C)(C)N(C)C)CC3)C(=O)N3CCCC(N3)C(=O)OCC(C)(C)C2)C1: 9.89

# input for lookup
With LG0567-F671-PDC complex spheroids viability as the test system, Nc1ccn(C2OC(CO)C(O)C2(F)F)c(=O)n1 (centres undefined) + CCn1c(-c2cc(N3CCN(C)CC3)cnc2C(C)OC)c2c3cc(ccc31)-c1csc(n1)CC(NC(=O)C1CC1C)C(=O)N1CCCC(N1)C(=O)OCC(C)(C)C2 showed viability, T/C of 2.74

====

Provide the reported pIC50 of each item.
tested on: LG0567-F671-PDC complex spheroids viability; experiment: Anticancer human tumor LG0567-F671-PDC cell line growth inhibition [RAS]; conditions: curve of first compound; second compound 0.1 µM;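 note: spheroids exposed to compound for seven days before readout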;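 for pIC50: luminescence signal used as a proxy for viable cells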
Answers are plain numbers, as −log10 of the molar value.

O=C(c1ccc(F)c(F)c1Nc1ccc(I)cc1F)N1CC(O)([C@@H]2CCCCN2)C1 + C#Cc1c(F)ccc2cc(O)cc(-c3ncc4c(N5CC6CCC(C5)N6)nc(OCC56CCCN5CC(F)C6)nc4c3F)c12: 8.07
CC1(O)CCCC1n1c(=O)c(C(F)F)cc2cnc(NC3CCN(S(C)(=O)=O)CC3)nc21 (stereo not given) + C#Cc1c(F)ccc2cc(O)cc(-c3ncc4c(N5CC6CCC(C5)N6)nc(OCC56CCCN5CC(F)C6)nc4c3F)c12: 5.21
CCC(CC)c1cc(NC2CCC(N)C2)n2nccc2n1 (stereo not given) + C#Cc1c(F)ccc2cc(O)cc(-c3ncc4c(N5CC6CCC(C5)N6)nc(OCC56CCCN5CC(F)C6)nc4c3F)c12: 5.77

Alright, here's another compound for you.
Lab entry: LG0567-F671-PDC complex spheroids viability assay, compound CCc1c2c(nc3ccc(O)cc13)-c1cc3c(c(=O)n1C2)COC(=O)[C@]3(O)CC + C#Cc1c(F)ccc2cc(O)cc(-c3ncc4c(N5CC6CCC(C5)N6)nc(OCC56CCCN5CC(F)C6)nc4c3F)c12 , pIC50 = 7.93

====

Assignment: determine reported IC50 for the given molecules.
system: LG0567-F671-PDC complex spheroids viability; experiment: Anticancer human tumor LG0567-F671-PDC cell line growth inhibition [RAS]; details: curve of first compound; second compound 0.1 µM;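 note: spheroids exposed to compound for seven days before readout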;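 for IC50: luminescence signal used as a proxy for viable cells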

Solved entries:
Cc1nc(N2CCC3(CC2)COC(C)C3N)c(CO)nc1Sc1ccnc(N)c1Cl (stereo not given) + C=CC(=O)N1CCN(c2nc(OCC3CCCN3C)nc3c(F)c(-c4nc(N)cc(C)c4C(F)(F)F)c(Cl)cc23)C(C)C1: < 31.6 nM
O=C(c1ccc(F)c(F)c1Nc1ccc(I)cc1F)N1CC(O)([C@@H]2CCCCN2)C1 + C=CC(=O)N1CCN(c2nc(OCC3CCCN3C)nc3c(F)c(-c4nc(N)cc(C)c4C(F)(F)F)c(Cl)cc23)C(C)C1: < 3.16 nM
CC(C)NCC(C(=O)N1CCN(c2ncnc3c2C(C)CC3O)CC1)c1ccc(Cl)cc1 (stereo not given) + C#Cc1c(F)ccc2cc(O)cc(-c3ncc4c(N5CC6CCC(C5)N6)nc(OCC56CCCN5CC(F)C6)nc4c3F)c12: > 10000 nM

Below are some molecules; for each one, tell me its IC50.
1. CC(Nc1ccc2c(c1)OCCn1cc(N3C(=O)OCC3C(F)F)nc1-2)C(N)=O (stereo not given) + C=CC(=O)N1CCN(c2nc(OCC3CCCN3C)nc3c(F)c(-c4nc(N)cc(C)c4C(F)(F)F)c(Cl)cc23)C(C)C1
2. Cc1nc(N2CCC3(CC2)COC(C)C3N)c(CO)nc1Sc1ccnc(N)c1Cl (stereo not given) + C#Cc1c(F)ccc2cc(O)cc(-c3ncc4c(N5CC6CCC(C5)N6)nc(OCC56CCCN5CC(F)C6)nc4c3F)c12

### Response
["< 31.6 nM", "< 31.6 nM"]

====

Tested on: LG0567-F671-PDC complex spheroids viability
Experiment: Anticancer human tumor LG0567-F671-PDC cell line growth inhibition [RAS]; active = viability on the fitted dose curve at most 10% of control; inactive = the rest;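 note: spheroids exposed to compound for seven days before readout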
Settings: second compound 0.03 µM; first compound 0.000949 µM
Description: RAS pathway inhibitors in Combinations in Complex Spheroids A high-throughput screen of multi-cell type tumor spheroids was designed to identify active combinations of RAS pathway inhibitors and targeted small molecules. Complex spheroids include a stromal component modeled by human endothelial cells (HUVEC) and fibroblasts modeled by human mesenchymal stem cells (MSCs). […] Compounds. […] If the clinical Cmax for an agent had not been determined, the highest concentration tested was 10 microM. […]
Hi! Could you answer with just one of these? YES (active), NO (inactive)

The following molecules have reported results that may help.
CCc1c2c(nc3ccc(O)cc13)-c1cc3c(c(=O)n1C2)COC(=O)[C@]3(O)CC + CCn1c(-c2cccnc2C(C)OC)c2c3cc(ccc31)N1CCOC(CC(NC(=O)C(C(C)C)N(C)C(=O)C3(F)CCN(C(=O)C#CC(C)(C)N(C)C)CC3)C(=O)N3CCCC(N3)C(=O)OCC(C)(C)C2)C1: NO
CC1(C)CCC(Nc2ncc(C(F)(F)F)c(-c3c[nH]c4c(P(C)(C)=O)c(C#N)ccc34)n2)CN1 (centres undefined) + CCn1c(-c2cc(N3CCN(C)CC3)cnc2C(C)OC)c2c3cc(ccc31)-c1csc(n1)CC(NC(=O)C1CC1C)C(=O)N1CCCC(N1)C(=O)OCC(C)(C)C2: YES
CC1(C)CCC(Nc2ncc(C(F)(F)F)c(-c3c[nH]c4c(P(C)(C)=O)c(C#N)ccc34)n2)CN1 (centres undefined) + CCn1c(-c2cccnc2C(C)OC)c2c3cc(ccc31)N1CCOC(CC(NC(=O)C(C(C)C)N(C)C(=O)C3(F)CCN(C(=O)C#CC(C)(C)N(C)C)CC3)C(=O)N3CCCC(N3)C(=O)OCC(C)(C)C2)C1: NO

### Prompt In this assay, the call recorded for CCc1c2c(nc3ccc(O)cc13)-c1cc3c(c(=O)n1C2)COC(=O)[C@]3(O)CC + CCn1c(-c2cc(N3CCN(C)CC3)cnc2C(C)OC)c2c3cc(ccc31)-c1csc(n1)CC(NC(=O)C1CC1C)C(=O)N1CCCC(N1)C(=O)OCC(C)(C)C2 was what?
### Response YES
